- experimentalTarget: FGFR1 (UniProt P11362)
- Sequence (P11362 whole entry, looked up): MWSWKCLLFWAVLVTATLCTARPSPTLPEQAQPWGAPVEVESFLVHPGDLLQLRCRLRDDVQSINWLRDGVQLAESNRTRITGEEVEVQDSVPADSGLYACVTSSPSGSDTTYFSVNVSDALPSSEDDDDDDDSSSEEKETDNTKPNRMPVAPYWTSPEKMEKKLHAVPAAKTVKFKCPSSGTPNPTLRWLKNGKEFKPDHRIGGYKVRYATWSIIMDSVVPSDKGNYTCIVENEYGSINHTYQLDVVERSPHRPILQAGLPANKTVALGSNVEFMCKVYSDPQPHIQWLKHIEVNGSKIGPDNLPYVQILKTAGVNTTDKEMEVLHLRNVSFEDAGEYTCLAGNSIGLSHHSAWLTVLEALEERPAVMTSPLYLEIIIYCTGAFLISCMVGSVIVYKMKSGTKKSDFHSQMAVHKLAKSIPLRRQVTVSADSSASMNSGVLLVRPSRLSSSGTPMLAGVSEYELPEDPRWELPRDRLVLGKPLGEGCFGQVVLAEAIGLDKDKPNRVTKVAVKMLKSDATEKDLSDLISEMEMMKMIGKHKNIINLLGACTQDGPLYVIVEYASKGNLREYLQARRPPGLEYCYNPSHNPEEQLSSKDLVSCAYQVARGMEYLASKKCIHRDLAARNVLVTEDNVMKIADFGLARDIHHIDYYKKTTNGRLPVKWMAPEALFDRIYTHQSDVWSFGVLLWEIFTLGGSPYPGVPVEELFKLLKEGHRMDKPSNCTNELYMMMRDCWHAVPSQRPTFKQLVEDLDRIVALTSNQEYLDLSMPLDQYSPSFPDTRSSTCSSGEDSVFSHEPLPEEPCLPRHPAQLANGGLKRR
- assayDetails: phosphorylation enrichment, bacterial display (enrichment ratio); higher = better substrate or ligand; peptides without Tyr show the background
Measured phosphorylation enrichment, listed per entry for reference.
API note: the answer field is a bare number with no unit suffix.

# annotated cases, reported phosphorylation enrichment shown
GYYDLYGGEKF [PTPN11_Y66_D61G]	10.9
FTNRNYDLDFD [MYC_Y12_YF]	0.561

Data request, read-out phosphorylation enrichment, for DDERGYRRVRC [GIGYF2_Y268_S273C]
0.533

Data request, read-out phosphorylation enrichment, for IMAYFYMCDSA [CASD1_Y382_R386S]
2.24

Data request, read-out phosphorylation enrichment, for RLLREYQELMN [KRT75_Y434]
0.785

Data request, read-out phosphorylation enrichment, for LARNMYDKEYY [MET_Y1230_D1228N]
0.631

Data request, read-out phosphorylation enrichment, for GESQGYDIMEP [MSH2_Y863]
0.424

Data request, read-out phosphorylation enrichment, for KFDLMYAKLAF [TUBA1A_Y399_R402L]
0.49

Data request, read-out phosphorylation enrichment, for RALLNYIASKF [GSTA3_Y74_I71L_YF]
0.423

Data request, read-out phosphorylation enrichment, for QEGPEYWDRNT [HLA-B_Y83]
1.03

Data request, read-out phosphorylation enrichment, for QDRTFYERVRT [SPEN_Y633_S635R_YF]
0.529

Data request, read-out phosphorylation enrichment, for RRERLYGGGGG [FUS_Y526_P525L]
0.546

Data request, read-out phosphorylation enrichment, for ASYGPNTRVQS [FOXL2_Y258_Y258N]
0.444

Data request, read-out phosphorylation enrichment, for QLQTNYPSSDN [MAX_Y115]
0.642

Data request, read-out phosphorylation enrichment, for NHFKIYNLCAE [PTEN_Y68_YF]
0.676

Data request, read-out phosphorylation enrichment, for IRRIAYEFVEM [ADA_Y84_K80R]
0.869

----------
- experimentalTarget: c-Src SH2
- assayDetails: SH2 binding enrichment of the phosphorylated peptide, bacterial display (enrichment ratio); higher = better substrate or ligand; peptides without Tyr show the background
Response field class: enum, chosen by comparing SH2 binding enrichment against lo (below 0.5), med (0.5 to below 0.9), hi (0.9 or more)

Solved cases below.
DAVAVYDGKIS [SH2D1A_Y7_H8D]	lo
SFSGEYGSGGG [ZG16_Y30_G32S_YF]	lo
CTTIHCNYMCN [TP53_Y234_Y234C]	med
DFFDLYGGEKK [PTPN11_Y66_F71K_YF]	med
AEQEEYSAMRD [NRAS_Y64_G60E]	lo

# classify by SH2 binding enrichment band: DFSLKYPTDIP [APC_Y1183_A1184P_YF]
lo

# classify by SH2 binding enrichment band: PGAGHYEDTIL [ALK_Y1604]
hi

# classify by SH2 binding enrichment band: EYGRRYGFSCQ [CCDC93_Y209_R213C]
lo

# classify by SH2 binding enrichment band: LLREWYVQDPY [SIX3_Y225_L226V]
hi

# classify by SH2 binding enrichment band: HNLDYYKETTN [FGFR3_Y648_K650E]
med

# classify by SH2 binding enrichment band: KMMGRYEMYAR [UPB1_Y362_T359M]
hi

# classify by SH2 binding enrichment band: QLCVNYPGGYT [PROS1_Y259]
med

# classify by SH2 binding enrichment band: TTPYNYSYIFK [RAB14_Y8_A4T]
hi

# classify by SH2 binding enrichment band: QLRPGYFPIPV [BAG3_Y93_I94F]
lo

# classify by SH2 binding enrichment band: ETCLAYREKRI [TEKT1_Y118]
med

# classify by SH2 binding enrichment band: RELGEYALAEF [ALDH1A3_Y492_YF]
hi

# classify by SH2 binding enrichment band: LQPNNCQFCGG [CSF1R_Y969_Y969C]
med

# classify by SH2 binding enrichment band: SQQTFYPVSNM [ABCD1_Y181_R182P_YF]
lo

# classify by SH2 binding enrichment band: RGVTHYILQTF [SLC39A4_Y359]
hi

# classify by SH2 binding enrichment band: SLFQFYFQQKG [CHKB_Y381_R377L]
hi

# classify by SH2 binding enrichment band: RHSGSYFVTSV [APC_Y2838_L2839F]
med

# classify by SH2 binding enrichment band: EVVGRYSVHFA [MLH1_Y183_N187Y_YF]
med

----------
- experimentalTarget: Hck (UniProt P08631)
- Sequence (P08631 whole entry, looked up): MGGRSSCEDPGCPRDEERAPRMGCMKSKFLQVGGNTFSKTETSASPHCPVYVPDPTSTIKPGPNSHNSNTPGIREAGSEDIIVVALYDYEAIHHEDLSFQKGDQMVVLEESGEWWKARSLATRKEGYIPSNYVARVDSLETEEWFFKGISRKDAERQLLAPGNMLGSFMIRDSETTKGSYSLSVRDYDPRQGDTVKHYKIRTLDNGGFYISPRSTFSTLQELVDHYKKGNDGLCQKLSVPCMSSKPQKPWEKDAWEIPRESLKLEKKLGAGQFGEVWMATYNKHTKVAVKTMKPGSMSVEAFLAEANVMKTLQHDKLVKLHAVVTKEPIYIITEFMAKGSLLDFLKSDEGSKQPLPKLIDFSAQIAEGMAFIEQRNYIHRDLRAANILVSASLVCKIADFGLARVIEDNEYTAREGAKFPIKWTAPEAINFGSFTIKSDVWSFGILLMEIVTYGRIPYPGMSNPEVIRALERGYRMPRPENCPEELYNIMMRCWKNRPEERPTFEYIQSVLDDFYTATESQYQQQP
- assayDetails: phosphorylation enrichment, bacterial display (enrichment ratio); higher = better substrate or ligand; peptides without Tyr show the background
Response field class: enum, chosen by comparing phosphorylation enrichment against bottom: < 0.5; middle: ≥ 0.5 and < 0.6; top: ≥ 0.6

FKWAVYCIIGR [NUP93_Y391_R388W_YF]	top
KKKKQYKGKFL [CASK_Y708_D710G_YF]	middle
HKNNNYEPSLF [BRCA2_Y57_N60S]	middle
CCNHPYRINGA [CHD7_Y1256_L1257R]	bottom
FTRNYYVRAVL [CYBA_Y88]	middle

# classify by phosphorylation enrichment band: KPRKLYTIKKP [BRD2_Y715_P714L]
bottom

# classify by phosphorylation enrichment band: KGELCYMHSRV [ABCD1_Y281_R280C]
bottom

# classify by phosphorylation enrichment band: FSNPAYFVLEG [INPPL1_Y986_N982S_YF]
bottom

# classify by phosphorylation enrichment band: YRRITYYNWRH [PDE6B_Y556_H557Y]
bottom

# classify by phosphorylation enrichment band: TQNAVYSAANY [DDX5_Y535_G533A]
top

----------
- experimentalTarget: c-Src SH2
- assayDetails: SH2 binding enrichment of the phosphorylated peptide, bacterial display (enrichment ratio); higher = better substrate or ligand; peptides without Tyr show the background
quantityMeasured: SH2 binding enrichment
API note: the answer field is a bare number with no unit suffix.

WVFNHYRWIIW [BRCA2_Y2624_YF]	0.717

Data request, read-out SH2 binding enrichment, for IFGVSYGEFRF [CFTR_Y512_D513G_YF]
0.705

Data request, read-out SH2 binding enrichment, for DKNSSYFADWF [TUBB8_Y340_L345F]
0.681

----------
- experimentalTarget: Jak2 (UniProt O60674)
- Sequence (O60674 whole entry, looked up): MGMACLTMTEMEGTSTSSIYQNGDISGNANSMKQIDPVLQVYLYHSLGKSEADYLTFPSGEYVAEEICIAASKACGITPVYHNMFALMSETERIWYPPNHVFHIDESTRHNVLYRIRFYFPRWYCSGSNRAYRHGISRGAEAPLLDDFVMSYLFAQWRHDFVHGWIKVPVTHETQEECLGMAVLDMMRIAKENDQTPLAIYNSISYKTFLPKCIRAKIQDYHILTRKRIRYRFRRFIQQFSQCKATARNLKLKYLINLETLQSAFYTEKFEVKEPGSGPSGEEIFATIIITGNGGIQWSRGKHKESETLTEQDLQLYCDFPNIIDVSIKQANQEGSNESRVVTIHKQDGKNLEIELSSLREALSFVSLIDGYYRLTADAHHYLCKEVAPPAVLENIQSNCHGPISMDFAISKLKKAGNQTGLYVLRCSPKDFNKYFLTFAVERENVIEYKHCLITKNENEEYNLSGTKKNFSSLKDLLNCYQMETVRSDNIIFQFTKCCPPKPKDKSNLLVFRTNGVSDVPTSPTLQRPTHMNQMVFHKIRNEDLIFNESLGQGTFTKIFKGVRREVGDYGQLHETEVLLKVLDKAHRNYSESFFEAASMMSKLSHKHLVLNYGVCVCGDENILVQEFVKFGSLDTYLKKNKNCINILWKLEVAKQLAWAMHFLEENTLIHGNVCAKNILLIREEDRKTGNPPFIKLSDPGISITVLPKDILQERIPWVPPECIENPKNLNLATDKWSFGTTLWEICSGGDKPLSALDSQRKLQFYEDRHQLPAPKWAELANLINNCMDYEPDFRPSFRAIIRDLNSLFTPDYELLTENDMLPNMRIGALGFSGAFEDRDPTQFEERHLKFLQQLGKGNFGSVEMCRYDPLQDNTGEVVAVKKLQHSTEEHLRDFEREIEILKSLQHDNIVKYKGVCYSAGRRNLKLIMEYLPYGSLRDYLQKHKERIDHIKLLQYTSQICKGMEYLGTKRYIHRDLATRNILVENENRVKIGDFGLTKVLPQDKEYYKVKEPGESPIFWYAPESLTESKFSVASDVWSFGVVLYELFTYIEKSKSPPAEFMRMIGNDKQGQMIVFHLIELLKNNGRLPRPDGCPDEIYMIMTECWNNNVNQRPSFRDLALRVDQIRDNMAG
- assayDetails: phosphorylation enrichment, bacterial display (enrichment ratio); higher = better substrate or ligand; peptides without Tyr show the background
quantityMeasured: phosphorylation enrichment
API note: the answer field is a bare number with no unit suffix.

# annotated cases, reported phosphorylation enrichment shown
FSPPYYHRNCM [HGD_Y334_R330S]	0.817
DIPIRYSIMGV [CDH4_Y205_T208M]	1
GEFFRYLAEVA [YWHAG_Y133_D129E_YF]	1.02

Data request, read-out phosphorylation enrichment, for DPAFGYEDFTR [SESN2_Y323_T320A]
0.987

Data request, read-out phosphorylation enrichment, for GITVTYTIPKK [UBA5_Y372_A371T]
0.994

Data request, read-out phosphorylation enrichment, for RELGEYALAEF [ALDH1A3_Y492_YF]
0.821

----------
- experimentalTarget: Grb2 SH2 (UniProt P62993)
- Sequence (P62993 whole entry, looked up): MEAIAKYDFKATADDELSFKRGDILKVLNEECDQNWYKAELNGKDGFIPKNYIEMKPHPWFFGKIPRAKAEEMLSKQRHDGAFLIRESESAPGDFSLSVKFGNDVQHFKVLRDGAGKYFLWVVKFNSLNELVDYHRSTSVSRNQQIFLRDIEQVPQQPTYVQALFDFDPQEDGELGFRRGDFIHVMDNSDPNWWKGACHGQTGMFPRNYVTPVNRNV
- assayDetails: SH2 binding enrichment of the phosphorylated peptide, bacterial display (enrichment ratio); higher = better substrate or ligand; peptides without Tyr show the background
Measured SH2 binding enrichment, listed per entry for reference.
API note: the answer field is a bare number with no unit suffix.

# annotated cases, reported SH2 binding enrichment shown
WHFTFYNELRV [ACTC1_Y93_H90Y_YF]	0.782
QLCVNYPGGYT [PROS1_Y259]	0.796
IHHIDYYKKTT [FGFR1_Y653]	0.793

Now take the following sequence into account.
Data request, read-out SH2 binding enrichment, for KTSGNYLAVTG [WDR19_Y28]
0.824

----------
- Tested on: c-Abl (mouse)
- assayDetails: phosphorylation enrichment, bacterial display (enrichment ratio); higher = better substrate or ligand; peptides without Tyr show the background
Lab note: anything with phosphorylation enrichment at or over 0.7 counts as true (1); the rest go in false (0).

CRPPFYHRNCM [HGD_Y334_F329C_YF]	false (0)
TYGVLYKARNK [CDK2_Y19_V18L]	false (0)
AVLSLYASGRN [ACTA1_Y145_T150N]	true (1)

Is phosphorylation enrichment for AYRHGYFDEEM [PLEC_Y2971_R2969H] at or above 0.7?
true (1)

Is phosphorylation enrichment for RVLHNYLVWRV [ECEL1_Y400] at or above 0.7?
true (1)

Is phosphorylation enrichment for RLGDLYKEEMR [VIM_Y150_E151K] at or above 0.7?
true (1)

Is phosphorylation enrichment for SIVEDYRPPFF [ACVRL1_Y421_G416S_YF] at or above 0.7?
true (1)

Is phosphorylation enrichment for IIQRAYRRHLL [SCN1A_Y1926] at or above 0.7?
false (0)

Is phosphorylation enrichment for FRASFYRKGGC [ALK_Y1283_YF] at or above 0.7?
false (0)

Is phosphorylation enrichment for ALVFLSFCIIF [SIGLEC12_Y494_Y494S] at or above 0.7?
true (1)

Data provenance is the supplement of paper PMC10065799.
